- Test target: sGC α1/β1 heterodimer (Homo sapiens, UniProt Q02108+Q02153)
- Construct: expressed in transfected cells; host or cells: CHO-K1 (clone #7, CHO-K1/sGC)
- Sequence (Q02108 whole entry): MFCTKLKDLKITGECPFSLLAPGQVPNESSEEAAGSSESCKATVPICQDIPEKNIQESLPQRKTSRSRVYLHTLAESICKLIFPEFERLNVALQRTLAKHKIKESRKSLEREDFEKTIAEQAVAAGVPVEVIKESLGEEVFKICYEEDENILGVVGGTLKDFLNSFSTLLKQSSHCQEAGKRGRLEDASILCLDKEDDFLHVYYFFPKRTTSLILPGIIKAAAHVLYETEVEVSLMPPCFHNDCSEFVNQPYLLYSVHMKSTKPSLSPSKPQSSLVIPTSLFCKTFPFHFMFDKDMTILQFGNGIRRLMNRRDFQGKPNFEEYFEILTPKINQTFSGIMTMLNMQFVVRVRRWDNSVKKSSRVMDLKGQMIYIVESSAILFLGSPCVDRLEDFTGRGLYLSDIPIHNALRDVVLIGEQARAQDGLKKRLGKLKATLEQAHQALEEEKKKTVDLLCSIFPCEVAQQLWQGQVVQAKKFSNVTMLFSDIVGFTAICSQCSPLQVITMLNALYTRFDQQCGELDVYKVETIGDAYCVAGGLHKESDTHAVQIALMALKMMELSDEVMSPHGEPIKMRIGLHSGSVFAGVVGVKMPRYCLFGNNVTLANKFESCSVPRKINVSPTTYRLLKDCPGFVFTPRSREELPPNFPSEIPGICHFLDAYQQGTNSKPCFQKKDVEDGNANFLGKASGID
- Sequence (Q02153 whole entry): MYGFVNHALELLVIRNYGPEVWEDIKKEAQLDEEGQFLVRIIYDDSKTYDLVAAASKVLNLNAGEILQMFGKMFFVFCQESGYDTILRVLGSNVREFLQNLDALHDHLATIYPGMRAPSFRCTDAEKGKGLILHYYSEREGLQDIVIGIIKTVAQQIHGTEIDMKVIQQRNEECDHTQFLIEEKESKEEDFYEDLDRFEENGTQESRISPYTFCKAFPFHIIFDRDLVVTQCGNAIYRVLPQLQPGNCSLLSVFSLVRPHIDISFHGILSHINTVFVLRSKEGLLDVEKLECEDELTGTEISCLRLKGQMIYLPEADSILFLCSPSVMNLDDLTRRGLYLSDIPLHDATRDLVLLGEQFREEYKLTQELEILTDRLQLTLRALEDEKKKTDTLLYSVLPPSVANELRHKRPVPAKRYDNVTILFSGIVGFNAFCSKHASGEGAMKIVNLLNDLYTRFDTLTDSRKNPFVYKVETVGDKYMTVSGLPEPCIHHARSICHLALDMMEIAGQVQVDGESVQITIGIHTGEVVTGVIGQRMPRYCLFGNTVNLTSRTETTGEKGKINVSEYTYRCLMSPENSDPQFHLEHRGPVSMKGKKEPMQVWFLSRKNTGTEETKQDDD
- Test method notes: Cell-based sGC functional assay (CASA assay): cGMP generation in CHO-K1/sGC cells, HTRF detection
- Condition: CHO-K1, percent activation relative to standard Compound A in CHO-K1/sGC cells; read-out: % Act.
Recorded metric: Emax (%)
A number alone suffices; assume %.

Lab note: compound CCC1(C2CC2)C(=O)Nc2nc(-c3cn4ccnc4c(CCC(F)(F)C(F)(F)F)n3)nc(N)c21 (stereo not shown) [Example 86B] tested on sGC α1/β1 heterodimer (Homo sapiens, UniProt Q02108+Q02153); recorded Emax was 102

Fill in: sGC α1/β1 heterodimer (Homo sapiens, UniProt Q02108+Q02153) Emax for CC1(C(=O)NC2CC2)C(=O)Nc2nc(-c3cn4cc(C(F)(F)F)nc4c(Cc4cccc(F)c4)n3)nc(N)c21 (stereo not shown) [Example 46A] = 124

Emax of CCC1(c2ccc(Br)cc2)C(=O)Nc2nc(-c3cn4ccnc4c(CCC(F)(F)F)n3)nc(N)c21 (stereo not shown) [Example 197A] , assay on sGC α1/β1 heterodimer (Homo sapiens, UniProt Q02108+Q02153), is 66

The reported sGC α1/β1 heterodimer (Homo sapiens, UniProt Q02108+Q02153) Emax of CC1(c2ccc(F)cn2)C(=O)Nc2nc(-c3cn4ccnc4c(CCC(F)(F)C(F)(F)F)n3)nc(N3CCOCC3)c21 (stereo not shown) [Example 294B] is 89
